I'd appreciate it if you could supply fraction unbound at 4 h, 1 µM values for the items below.
# TEST: Non-specific binding of drugs in human liver microsomes (fu,mic), rapid equilibrium dialysis
# Type: in vitro ADME
# TEST SETTINGS: unbound drug fraction in the microsomal mixture, HLM 0.5 mg/ml, inhibitor 1 µM, 37 °C, read-out: fu,mic at 0.5 mg/ml
Give bare numbers.

Give one value of fraction unbound at 4 h, 1 µM per listed compound.
1. CC[C@H]1OC(=O)[C@H](C)[C@@H](O[C@H]2C[C@@](C)(OC)[C@@H](O)[C@H](C)O2)[C@H](C)[C@@H](O[C@@H]2O[C@H](C)C[C@H](N(C)C)[C@H]2O)[C@](C)(O)C[C@@H](C)CN(C)[C@H](C)[C@@H](O)[C@]1(C)O
2. CC[C@H]1OC(=O)[C@H](C)C(=O)[C@H](C)[C@@H](O[C@@H]2O[C@H](C)C[C@H](N(C)C)[C@H]2O)[C@](C)(OC)C[C@@H](C)C(=O)[C@H](C)[C@H]2N(CCCCn3cnc(-c4cccnc4)c3)C(=O)O[C@]12C

-- reply
1: 0.765; 2: 0.657
